Reported pKd values for the following molecules.
Target: UniProtKB O00329
Sequence (O00329 1-1044): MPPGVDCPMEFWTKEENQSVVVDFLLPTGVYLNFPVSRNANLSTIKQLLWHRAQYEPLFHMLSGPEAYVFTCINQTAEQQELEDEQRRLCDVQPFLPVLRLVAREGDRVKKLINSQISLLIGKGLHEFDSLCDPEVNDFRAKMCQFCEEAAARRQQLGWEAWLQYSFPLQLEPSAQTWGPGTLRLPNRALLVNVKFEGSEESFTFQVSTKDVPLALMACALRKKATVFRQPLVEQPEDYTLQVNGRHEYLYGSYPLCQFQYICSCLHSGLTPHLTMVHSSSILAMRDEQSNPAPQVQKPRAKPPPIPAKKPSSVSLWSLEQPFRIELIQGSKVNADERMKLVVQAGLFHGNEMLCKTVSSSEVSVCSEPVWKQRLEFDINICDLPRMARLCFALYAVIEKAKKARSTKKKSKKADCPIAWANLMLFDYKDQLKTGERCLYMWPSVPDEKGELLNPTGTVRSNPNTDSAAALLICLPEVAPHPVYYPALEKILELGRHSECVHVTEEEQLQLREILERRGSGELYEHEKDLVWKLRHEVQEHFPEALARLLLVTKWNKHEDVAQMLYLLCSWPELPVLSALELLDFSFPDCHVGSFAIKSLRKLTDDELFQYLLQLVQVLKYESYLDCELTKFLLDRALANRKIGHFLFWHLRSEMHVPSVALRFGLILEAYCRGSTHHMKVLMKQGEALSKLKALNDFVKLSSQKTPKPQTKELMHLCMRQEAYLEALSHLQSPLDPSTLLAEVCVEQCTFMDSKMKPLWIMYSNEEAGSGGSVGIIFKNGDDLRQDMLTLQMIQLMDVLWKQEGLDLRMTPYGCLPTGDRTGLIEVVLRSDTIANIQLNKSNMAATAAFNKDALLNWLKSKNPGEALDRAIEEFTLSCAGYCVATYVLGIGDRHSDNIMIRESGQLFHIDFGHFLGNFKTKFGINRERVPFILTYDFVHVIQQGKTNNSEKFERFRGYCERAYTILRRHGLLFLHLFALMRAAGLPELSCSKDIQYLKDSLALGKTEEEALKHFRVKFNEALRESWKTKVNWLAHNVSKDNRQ
Convention used: pKd is expressed as -log10 of the molar concentration.

Worked set:
{"molecule": "CN(C)C(=O)c1cc(C2CCCN2c2ccc(F)cc2)c2nc(N3CCOCC3)cnc2c1 (stereo not shown)", "pKd": 7.25}
{"molecule": "CNCCNC(=O)c1cc([C@H](C)Oc2cccc(F)c2)c2nc(N3CCOCC3)cnc2c1 [Compound 123a]", "pKd": 5.29}
{"molecule": "CCN1CCN(C(=O)c2cc(C(C)Nc3cccc(F)c3)c3nc(N4CCOCC4)cnc3c2)CC1 (single isomer, unassigned) [Compound 114]", "pKd": 6.73}

IN: # query: pKd | item CNCCNC(=O)c1cc(C(C)Nc2cc(F)cc(F)c2)c2nc(N3CCOCC3)cnc2c1 (single isomer, unassigned) [Compound 406b] | system: UniProtKB O00329
OUT: 5.46

IN: # query: pKd | item COC(=O)c1cc(C2CCCN2c2cc(F)cc(F)c2)c2nc(N3CCOCC3)cnc2c1 (single isomer, unassigned) | system: UniProtKB O00329
OUT: 6.02

IN: # query: pKd | item Cc1ccc(NC(C)c2cc(C(=O)NCCN(C)C)cc3ncc(N4CCOCC4)nc23)cc1F (single isomer, unassigned) [Compound 407a] | system: UniProtKB O00329
OUT: 6.14

IN: # query: pKd | item COCCNC(=O)c1cc(C(C)Nc2cc(F)cc(F)c2)c2nc(N3CCOCC3)cnc2c1 (single isomer, unassigned) | system: UniProtKB O00329
OUT: 6.04
